Target: LRO4
Test: competitive phage ELISA, coated LRO4; competitor MDA-LDL 50 µg/mL
Bridges are numbered along the chain shown (N, C = ends). Where no end group is shown, it is not given here.
I'd appreciate it if you could supply B/Bo (inhibition of binding to LR04) values for the items below.
Quick note: unit goes after the number.

Lab note: ESWTNSWAHYFGGGGS (peptide, not shown: large carriers) [phage clones A36, B41, M35] gave B/Bo (inhibition of binding to LR04) of 0.14 B/Bo

Summary for this binder, ACNNSXMPLCGGGS (peptide, not shown: large carriers, disulfide 2-10; not fully specified; X: residue not identified in the source) [phage clone Ca6] : B/Bo (inhibition of binding to LR04) is 0.04 B/Bo

B/Bo (inhibition of binding to LR04) in this record for ACNNRNMPLCGGGS (peptide, not shown: large carriers, disulfide 2-10; also: C-terminus fused to phage pIII) [phage clones Ca59, Cb1] : 0.06 B/Bo

Entry ACNNQNMPLCGGGS (peptide, not shown: large carriers, disulfide 2-10; also: C-terminus fused to phage pIII) [phage clone Cb9] ; B/Bo (inhibition of binding to LR04) = 0.02 B/Bo

Summary for this binder, ACQNSHMPLCGGGS (peptide, not shown: large carriers, disulfide 2-10; also: C-terminus fused to phage pIII) [phage clone Ca3] : B/Bo (inhibition of binding to LR04) is 0.04 B/Bo
